System: Candida albicans
Method: Growth inhibition of Candida albicans ATCC 10231 at 3.4 ug/ml incubated for 48 hrs under dark condition by broth microdilution method relative to control
Format: functional
Condition Set: ATCC 10231, 48 h, read-out: GI
Listing: inhibition of growth at 3.4 µg/mL of selected compounds
Property Measured: inhibition of growth at 3.4 µg/mL (%)

[
  {
    "Compound": "Clc1ccc2c(Nc3cccc(C4CC(c5ccc(Br)cc5)=NN4c4ccccc4)c3)ccnc2c1 (stereo not drawn)",
    "Quantitative Result": 3.09
  },
  {
    "Compound": "Clc1ccc(N2N=C(c3ccccc3)CC2c2cccc(Nc3ccnc4cc(Cl)ccc34)c2)cc1 (stereo not drawn)",
    "Quantitative Result": 2.71
  },
  {
    "Compound": "Clc1ccc(C2=NN(c3cc(Cl)cc(Cl)c3)C(c3cccc(Nc4ccnc5cc(Cl)ccc45)c3)C2)cc1 (stereo not drawn)",
    "Quantitative Result": 1.64
  },
  {
    "Compound": "COc1ccc(C2=NN(C=O)C(c3cccc(Nc4ccnc5cc(Cl)ccc45)c3)C2)cc1 (stereo not drawn)",
    "Quantitative Result": 3.51
  },
  {
    "Compound": "Clc1ccc(C2=NN(c3ccccc3)C(c3cccc(Nc4ccnc5cc(Cl)ccc45)c3)C2)cc1 (stereo not drawn)",
    "Quantitative Result": 0
  },
  {
    "Compound": "O=C(/C=C/c1cccc(Nc2ccnc3cc(Cl)ccc23)c1)c1ccc(Cl)cc1",
    "Quantitative Result": 15.3
  },
  {
    "Compound": "Clc1cc(Cl)cc(N2N=C(c3ccccc3)CC2c2cccc(Nc3ccnc4cc(Cl)ccc34)c2)c1 (stereo not drawn)",
    "Quantitative Result": 0
  },
  {
    "Compound": "COc1cc(C2=NN(c3cc(Cl)cc(Cl)c3)C(c3cccc(Nc4ccnc5cc(Cl)ccc45)c3)C2)cc(OC)c1OC (stereo not drawn)",
    "Quantitative Result": 0.27
  },
  {
    "Compound": "COc1cc(C2=NN(c3ccc(Cl)cc3)C(c3cccc(Nc4ccnc5cc(Cl)ccc45)c3)C2)cc(OC)c1OC (stereo not drawn)",
    "Quantitative Result": 2.27
  },
  {
    "Compound": "O=CN1N=C(c2ccccc2)CC1c1cccc(Nc2ccnc3cc(Cl)ccc23)c1 (stereo not drawn)",
    "Quantitative Result": 2.19
  },
  {
    "Compound": "Cc1ccc(C2=NN(C=O)C(c3cccc(Nc4ccnc5cc(Cl)ccc45)c3)C2)cc1 (stereo not drawn)",
    "Quantitative Result": 12.7
  },
  {
    "Compound": "COc1cc(C2=NN(C(C)=O)C(c3cccc(Nc4ccnc5cc(Cl)ccc45)c3)C2)cc(OC)c1OC (stereo not drawn)",
    "Quantitative Result": 0
  },
  {
    "Compound": "Clc1ccc2c(Nc3cccc(C4CC(c5ccccc5)=NN4c4ccccc4)c3)ccnc2c1 (stereo not drawn)",
    "Quantitative Result": 3.1
  },
  {
    "Compound": "Clc1cc(Cl)cc(N2N=C(c3ccc(Br)cc3)CC2c2cccc(Nc3ccnc4cc(Cl)ccc34)c2)c1 (stereo not drawn)",
    "Quantitative Result": 0
  },
  {
    "Compound": "CC(=O)N1N=C(c2ccc(Br)cc2)CC1c1cccc(Nc2ccnc3cc(Cl)ccc23)c1 (stereo not drawn)",
    "Quantitative Result": 13.7
  },
  {
    "Compound": "CC(=O)N1N=C(c2ccc(C)cc2)CC1c1cccc(Nc2ccnc3cc(Cl)ccc23)c1 (stereo not drawn)",
    "Quantitative Result": 15.9
  },
  {
    "Compound": "CC(=O)N1N=C(c2ccccc2)CC1c1cccc(Nc2ccnc3cc(Cl)ccc23)c1 (stereo not drawn)",
    "Quantitative Result": 5.28
  },
  {
    "Compound": "COc1cc(C2=NN(C=O)C(c3cccc(Nc4ccnc5cc(Cl)ccc45)c3)C2)cc(OC)c1OC (stereo not drawn)",
    "Quantitative Result": 5.34
  }
]
